system: H1781 (HER2 InsVC); assay: Antiproliferative activities in lung cancer cells, H1781; assay type: cell-based; conditions: NCI-H1781
pEC50: −log10 of the molar value.
Item-by-item account of pEC50
MEASURED_PROPERTY: pEC50

{"columns": ["MOLECULE", "OBSERVED_RESULT"],
 "data": [
  ["CCOc1cc2ncc(C#N)c(Nc3ccc(Oc4ccn5ncnc5c4)c(C)c3)c2cc1NC(=O)/C=C/CN(C)C [Compound 1]", "6.60 to 7.00"],
  ["Cc1cc(Nc2ncnc3ccc(NC4=NC(C)(C)CO4)cc23)ccc1Oc1ccn2ncnc2c1 [Irbinitinib, reference compound]", "≤ 6.30"],
  ["CN(C)C/C=C/C(=O)Nc1cc2c(Nc3ccc(F)c(Cl)c3)ncnc2cc1O[C@H]1CCOC1 [Afatinib]", "6.60 to 7.00"]
]}
